METHOD_NOTES: Pharmacokinetic Assay, single oral dose 5 mg/kg (Table 12)
Assay type: in vivo
RUN_PARAMETERS: mouse; plasma concentration, C57 female mice, single oral dose 5 mg/kg, 2 h
PROPERTY_NAME: concentration at 2 h (ng/mL)

Cc1c(-c2nc3cc(CN4CCC(C)(C)C4)c(OC(F)F)cc3o2)cccc1-c1cccc(-c2nc3cc(CN4CCC[C@H]4C(=O)O)c(OC(F)F)cc3o2)c1C [Example 67]    418
Cc1c(-c2nc3cc(CN4CC(C)C4)c(OC(F)F)cc3o2)cccc1-c1cccc(-c2nc3cc(CN4CCC[C@H]4C(=O)O)c(OC(F)F)cc3o2)c1C [Example 56]    192
COc1nc(-c2cccc(-c3cccc(-c4nc5cc(CN6CCC[C@H]6C(=O)O)c(OC(F)F)cc5o4)c3C)c2C)ccc1CN1CC[C@@H](C)C1 [Example 272]    198
Cc1c(-c2nc3c(o2)CCCC3)cccc1-c1cccc(-c2nc3cc(CN4CCC[C@H]4C(=O)O)c(OC(F)F)cc3o2)c1C [Example 205]    1440
Cc1c(-c2nc3cc(CN4CCC(F)C4)c(OC(F)F)cc3o2)cccc1-c1cccc(-c2nc3cc(CN4CCC[C@H]4C(=O)O)c(OC(F)F)cc3o2)c1C (some centres unmarked) [Example 10]    221
COc1nc(-c2cccc(-c3cccc(-c4nc5cc(CN6CCC[C@H]6C(=O)O)c(OC(F)F)cc5o4)c3C)c2C)ccc1CN1CCC(C)(C)C1 [Example 294]    193

P: Cc1c(-c2nc3cc(CN4CCC[C@H]4C(=O)O)c(OC(F)F)cc3o2)cccc1-c1cccc(-c2nc3cc(CN4CC[C@@H](C)C4)cnc3o2)c1C [Example 114]
Q: CCS(=O)(=O)N1CCc2oc(-c3cccc(-c4cccc(-c5nc6cc(CN7CCC[C@H]7C(=O)O)c(OC(F)F)cc6o5)c4C)c3C)nc2C1 [Example 197]
R: Cc1c(-c2cnc(N3CCCC3)nc2)cccc1-c1cccc(-c2nc3cc(CN4CCC[C@H]4C(=O)O)c(OC(F)F)cc3o2)c1C [Example 283]
S: Cc1c(-c2nc3cc(CN4CCCC4)c(OC(F)F)cc3o2)cccc1-c1cccc(-c2nc3cc(CN4CCC[C@H]4C(=O)O)c(OC(F)F)cc3o2)c1C [Example 5]
Query string: Task for the reader: rank each entry by its concentration at 2 h, from the minimum upward. When ranking, write the labels in the order the request describes.
Result string: S, P, Q, R

1: Cc1c(-c2nc3cc(CN4CCC[C@H]4C(=O)O)c(OC(F)F)cc3o2)cccc1-c1cccc(-c2nc3cc(CN4CCCC4)cc(C#N)c3o2)c1C [Example 127]
2: Cc1c(-c2nc3cc(CN4CCC[C@H]4C(=O)O)c(OC(F)F)cc3o2)cccc1-c1cccc(-c2nc3cc(CN4CCC(F)C4)cc(C#N)c3o2)c1C (some centres unmarked) [Example 162]
3: Cc1c(-c2nc3c(o2)CCN(CC2CCO2)C3)cccc1-c1cccc(-c2nc3cc(CN4CCC[C@H]4C(=O)O)c(OC(F)F)cc3o2)c1C (some centres unmarked) [Example 192]
4: Cc1c(-c2nc3cc(CN(C)[C@@H]4CCC[C@H]4O)c(OC(F)F)cc3o2)cccc1-c1cccc(-c2nc3cc(CN4CCC[C@H]4C(=O)O)c(OC(F)F)cc3o2)c1C [Example 57]
Query string: Task for the reader: rank each entry by its concentration at 2 h, from the minimum upward. When ranking, write the labels in the order the request describes.
Result string: 4, 1, 3, 2

a: Cc1c(-c2ccc(CN3Cc4ccccc4C3)c(F)c2)cccc1-c1cccc(-c2nc3cc(CN4CCC[C@H]4C(=O)O)c(OC(F)F)cc3o2)c1C [Example 241]
b: Cc1c(-c2nc3cc(CN4C[C@@H](F)[C@H](F)C4)c(OC(F)F)cc3o2)cccc1-c1cccc(-c2nc3cc(CN4CCC[C@H]4C(=O)O)c(OC(F)F)cc3o2)c1C [Example 18]
c: Cc1nc(-c2cccc(-c3cccc(-c4nc5cc(CN6CCC[C@H]6C(=O)O)c(OC(F)F)cc5o4)c3C)c2C)oc1CN1CCCC1 [Example 304]
d: COc1nc(-c2cccc(-c3cccc(-c4nc5cc(CN6CCC[C@H]6C(=O)O)c(OC(F)F)cc5o4)c3C)c2C)cnc1CN1CC[C@@H](C)C1 [Example 286]
Query string: Please rank these compounds by concentration at 2 h in descending order. When ranking, write the labels in the order the request describes.
Result string: b, a, c, d

A: Cc1c(-c2nc3cc(CN4CCC[C@H]4C(=O)O)c(OC(F)F)cc3o2)cccc1-c1cccc(-c2nc3cc(CN4CC(C)(C)C4)cc(C#N)c3o2)c1C [Example 103]
B: Cc1c(-c2nc3cc(CN4CCC[C@H]4C(=O)O)c(OC(F)F)cc3o2)cccc1-c1cccc(-c2nc3cc(CN4CC[C@@H](C)C4)cc(C#N)c3o2)c1C [Example 131]
Query string: Lab log: flag the item ( A or B ) with the smaller concentration at 2 h figure. State your choice using its label.
Result string: A
(A: 185 ng/mL, B: 301 ng/mL)

a: Cc1c(-c2nc3cc(CN4CCC[C@H]4C(=O)O)c(OC(F)F)cc3o2)cccc1-c1cccc(-c2nc3cc(CN4CCCC4)c(C(F)(F)F)cc3o2)c1C [Example 101]
b: Cc1c(-c2ccc(CN3CCC(F)C3)cc2)cccc1-c1cccc(-c2nc3cc(CN4CCC[C@H]4C(=O)O)c(OC(F)F)cc3o2)c1C (some centres unmarked) [Example 242]
Query string: Please tell me which of the two, a or b , has the higher reported concentration at 2 h value. State your choice using its label.
Result string: a
